Where these numbers come from: the supplement of paper PMC7411054

Tested on: A549-GM130-SQSTM1
Assay: lowest phenotypically active concentration; higher = less potent
Conditions: treatment time: 24 h
Entries and their lowest phenotypically active concentration values follow.

Look up and report measured lowest phenotypically active concentration for this entry: CC[C@@H](C(=O)[C@@H](C)[C@@H](O)[C@H](C)[C@@H]1O[C@@H]([C@@H](CC)C(=O)O)CC[C@@H]1C)[C@H]1O[C@]2(C=C[C@@H](O)[C@]3(CC[C@@](C)([C@H]4CC[C@](O)(CC)[C@H](C)O4)O3)O2)[C@H](C)C[C@@H]1C [Salinomycin Sodium]
≤ 0.3 µM

Look up and report measured lowest phenotypically active concentration for this entry: CC(C)(C)c1cc(C=C(C#N)C#N)cc(C(C)(C)C)c1O [Malonoben]
≤ 0.3 µM

Look up and report measured lowest phenotypically active concentration for this entry: Cc1c(C(=O)Nc2cccc(C(F)(F)F)c2)cc(-c2ccccc2)n1CCCN1CCOCC1
9 µM

Look up and report measured lowest phenotypically active concentration for this entry: CCN1CCN(C(=O)Cc2ccc(Nc3ncc(F)c(Nc4ccc(C(=O)Nc5ccccc5Cl)cc4)n3)cc2)CC1
1 µM

Look up and report measured lowest phenotypically active concentration for this entry: COc1cc2c(c(OC)c1OC)-c1ccc(O)c(=O)cc1[C@@H](N)CC2 [Trimethylcolchicinic acid]
9 µM
